Tested on: SF-539 CNS
assay-overview: NCI tumour cell line growth inhibition, 48 h
Recorded GI50, one value per entry.

[
  {
    "molecule": "COc1cccc(-c2nn(-c3ccccc3)cc2-c2ccnc(NCCCNC(=O)c3cccc(C(F)(F)F)c3)c2)c1",
    "GI50": "2.92 µM"
  },
  {
    "molecule": "O=S(=O)(NCCNc1nccc(-c2c(-c3ccc(F)c(O)c3)nc3sccn23)n1)c1ccc(Cl)cc1",
    "GI50": "5.09 µM"
  },
  {
    "molecule": "O=C(Nn1c(-c2cccs2)nc2ccc(I)cc2c1=O)c1ccccc1",
    "GI50": "30.1 µM"
  },
  {
    "molecule": "CCN(CC)c1c(-c2ccccc2)n[nH]c1C(=O)OC",
    "GI50": "20.1 µM"
  },
  {
    "molecule": "Cc1cc(C(=O)Nc2n[nH]c3ccccc23)n[nH]1",
    "GI50": "> 100 µM"
  },
  {
    "molecule": "N#Cc1ccc(-c2c(-c3ncn[nH]3)sc(N3CCOCC3)c2C#N)c(F)c1",
    "GI50": "0.571 µM"
  },
  {
    "molecule": "Nc1c(C(=O)Nc2ccccn2)sc2nc3c(cc12)C(O)CCC3 (centres undefined)",
    "GI50": "1.47 µM"
  },
  {
    "molecule": "CO[C@@H]1CCN(c2nccc(Nc3cc4c(C(C)C)ccc(N5CC(CS(C)(=O)=O)[C@H]5C)c4cn3)n2)C[C@@H]1F (some centres undefined)",
    "GI50": "5.05 µM"
  },
  {
    "molecule": "COCCOCCOCc1n(Cc2ccc3ccccc3c2)c2ccccc2[n+]1Cc1ccc2ccccc2c1",
    "GI50": "0.587 µM"
  }
]

---

Recorded TGI, one value per entry.
Test system: A498 renal
assay-overview: NCI tumour cell line growth inhibition, 48 h

[
  {
    "compound": "O=C(O)C(O)(c1ccc(-c2ccccc2)cc1)c1ccc(-c2ccccc2)cc1",
    "censor-symbol": "=",
    "TGI [µM]": 43.5
  },
  {
    "compound": "CC(C)(C)OC(=O)NCCCCn1c2c(c3ccccc3c1=O)C(=O)c1ccccc1-2",
    "censor-symbol": "=",
    "TGI [µM]": 65.3
  },
  {
    "compound": "C=C(Cl)/C(=C\\Cl)CCC(Cl)C(C)C (stereo unspecified)",
    "censor-symbol": ">",
    "TGI [µM]": 100
  },
  {
    "compound": "CN(CCO)Cc1ncccc1O",
    "censor-symbol": ">",
    "TGI [µM]": 100
  },
  {
    "compound": "Cc1ccccc1NC(=O)/C=N/O",
    "censor-symbol": ">",
    "TGI [µM]": 100
  },
  {
    "compound": "NCCCCCNc1noc(Cc2c[nH]c3cc(Br)ccc23)n1",
    "censor-symbol": "=",
    "TGI [µM]": 10.7
  },
  {
    "compound": "CCC/C=C\\C=C\\C1(NS(=O)(=O)c2ccc(C)cc2)CCC(C(C)(C)C)CC1 (stereo unspecified)",
    "censor-symbol": "=",
    "TGI [µM]": 46.4
  },
  {
    "compound": "CC[C@@]1(OC(=O)CN(C)C)C(=O)OCc2c1cc1n(c2=O)Cc2cc3c(N)cccc3nc2-1",
    "censor-symbol": "=",
    "TGI [µM]": 0.0987
  },
  {
    "compound": "O=C1c2c(O)cc(O)cc2C(C2OC(CO)C(O)C(O)C2O)c2cc(CO)cc(O)c21 (stereo unspecified)",
    "censor-symbol": ">",
    "TGI [µM]": 100
  },
  {
    "compound": "C[C@@H](CC(=O)O)OC1OC(COC(=O)C(C)(C)C)C(OC(=O)C(C)(C)C)C(OC(=O)C(C)(C)C)C1OC(=O)C(C)(C)C (stereo partly specified)",
    "censor-symbol": ">",
    "TGI [µM]": 100
  },
  {
    "compound": "Cc1c(Cl)c(=O)oc2cc(OC/C=C3\\CCC(=O)O3)ccc12",
    "censor-symbol": "=",
    "TGI [µM]": 75.3
  },
  {
    "compound": "CNC(=O)c1cc(Oc2cccc3nc(NC(=O)Nc4cc(C(F)(F)F)cc(C(F)(F)F)c4)ccc23)ccn1",
    "censor-symbol": "=",
    "TGI [µM]": 5.02
  },
  {
    "compound": "CC1=NN(c2nc(N)nc(CSc3cc(Cl)c(C)cc3S(N)(=O)=O)n2)C(C)(C)C1",
    "censor-symbol": ">",
    "TGI [µM]": 10
  },
  {
    "compound": "C=CC(COC(=O)C(C)(C)OC(C)=O)c1ccc(OC(=O)C(C)C)c(OC)c1 (stereo unspecified)",
    "censor-symbol": "=",
    "TGI [µM]": 37.7
  },
  {
    "compound": "O=C(O)c1cc2ccccc2c2c3c(ccc12)OCO3",
    "censor-symbol": "=",
    "TGI [µM]": 324
  },
  {
    "compound": "Nc1c(C(=O)Nc2ccccn2)sc2nc3c(cc12)C(O)CCC3 (stereo unspecified)",
    "censor-symbol": ">",
    "TGI [µM]": 50
  },
  {
    "compound": "CCOc1ccccc1NC(=O)C(=O)C(/C(=N/N)C(=O)OC)c1nc2ccc([N+](=O)[O-])cc2[nH]c1=O (stereo unspecified)",
    "censor-symbol": ">",
    "TGI [µM]": 100
  },
  {
    "compound": "O=C1CCC(=O)N1CNc1ccc2c(c1)S(=O)(=O)c1ccccc1O2",
    "censor-symbol": ">",
    "TGI [µM]": 100
  },
  {
    "compound": "CC1=C(C(=O)NCc2ccccc2)C(c2ccc(Cl)c(Cl)c2)C(C(=O)NCc2ccccc2)=C(C)N1",
    "censor-symbol": ">",
    "TGI [µM]": 100
  },
  {
    "compound": "O=C1C[C@H](COCc2ccccc2)NC(=O)C[C@H](COCc2ccccc2)NC(=O)C[C@H](COCc2ccccc2)N1",
    "censor-symbol": "=",
    "TGI [µM]": 42
  },
  {
    "compound": "Nc1ncnc2c1ncn2C1OC(COS(N)(=O)=O)C(O)C1O (stereo unspecified)",
    "censor-symbol": "=",
    "TGI [µM]": 0.0344
  }
]

---

System: OVCAR-3 ovarian
assay-overview: NCI tumour cell line growth inhibition, 48 h

[
  {
    "compound": "CO[C@@H]1CCN(c2nccc(Nc3cc4c(C(C)C)ccc(N5CC(CS(C)(=O)=O)[C@H]5C)c4cn3)n2)C[C@@H]1F (stereo partly drawn)",
    "TGI": "> 100 µM"
  },
  {
    "compound": "CN1CC(c2ccccc2)C(O)(C2(c3ccccc3)CN(C)CC(c3ccccc3)C2=O)C(c2ccccc2)C1 (stereo not drawn)",
    "TGI": "> 100 µM"
  },
  {
    "compound": "COc1cc2cc(C(=O)N3CC(CCl)c4ccc([N+](C)(C)Cc5ccc([N+](=O)[O-])cc5)cc43)[nH]c2c(OC)c1OC (stereo not drawn)",
    "TGI": "7.16 µM"
  },
  {
    "compound": "COc1ccc(NC(=S)NNC(=O)c2nsc3ccccc23)cc1",
    "TGI": "52.9 µM"
  },
  {
    "compound": "COc1ccc2c(c1)CC1COc3cc(OC)ccc3C1O2 (stereo not drawn)",
    "TGI": "> 100 µM"
  },
  {
    "compound": "COc1cc2c(oc(=O)c3c4occc4cc(OC)c23)c2cccc(OCc3ccccc3)c12",
    "TGI": "> 100 µM"
  },
  {
    "compound": "COC1CC(OC2CCC3(C)C(=CCC4C3C(OC(C)=O)C(OC(=O)CC(C)C)C3(C)C(C(C)=O)CCC43O)C2)OC(C)C1OC1CC(OC)C(OC2CC(OC)C(OC3OC(C)C(O)C(OC)C3O)C(C)O2)C(C)O1 (stereo not drawn)",
    "TGI": "> 100 µM"
  },
  {
    "compound": "N#CCCN(CCC#N)c1ccc(C(N=Nc2ccc(Cl)cc2)=Nc2ccccc2)cc1",
    "TGI": "22.1 µM"
  }
]

---

Test system: UACC-257 melanoma
assay-overview: NCI tumour cell line growth inhibition, 48 h
Recorded log10 TGI, one value per entry.
assay-readout: log10 TGI (log10 of the value in µM)

[
  {
    "molecule": "O=c1c2ccccc2[nH]c2c(O)ccc(O)c12",
    "tested-on": "UACC-257 melanoma",
    "log10 TGI": 1.54
  },
  {
    "molecule": "CC(=O)c1c(SCCN2CCOCC2)n(-c2ccccc2)c(=S)n(-c2ccccc2)c1=O",
    "tested-on": "UACC-257 melanoma",
    "log10 TGI": 1.47
  },
  {
    "molecule": "O=[N+]([O-])c1ccc(-n2nc3ccc4c(no[n+]4[O-])c3[n+]2[O-])c([N+](=O)[O-])c1",
    "tested-on": "UACC-257 melanoma",
    "log10 TGI": 0.56
  },
  {
    "molecule": "O=C1c2c(Br)sc(Br)c2[C@@H](Cl)[C@H]1Cl",
    "tested-on": "UACC-257 melanoma",
    "log10 TGI": 1.49
  },
  {
    "molecule": "Cc1cc(N(CCC#N)CCC#N)ccc1N=Nc1cc(Cl)ccc1Cl",
    "tested-on": "UACC-257 melanoma",
    "log10 TGI": 1.38
  },
  {
    "molecule": "Cc1cn(C2C=CC(COP(=O)(OCc3ccc([N+](=O)[O-])o3)N(C)CCCCCl)O2)c(=O)[nH]c1=O (stereo not given)",
    "tested-on": "UACC-257 melanoma",
    "log10 TGI": 1.26
  },
  {
    "molecule": "CC(C)(C)OC(=O)NCCCCn1c2c(c3ccccc3c1=O)C(=O)c1ccccc1-2",
    "tested-on": "UACC-257 melanoma",
    "log10 TGI": 1.85
  },
  {
    "molecule": "O=C1C(=C2CCCC2)CCC1CN1CCCCC1 (stereo not given)",
    "tested-on": "UACC-257 melanoma",
    "log10 TGI": 1.54
  },
  {
    "molecule": "COc1cccc(-c2nn(-c3ccccc3)cc2-c2ccnc(NCCCNC(=O)c3cccc(C(F)(F)F)c3)c2)c1",
    "tested-on": "UACC-257 melanoma",
    "log10 TGI": 1.20
  },
  {
    "molecule": "CO[C@@H]1CCN(c2nccc(Nc3cc4c(C(C)C)ccc(N5CC(CS(C)(=O)=O)[C@H]5C)c4cn3)n2)C[C@@H]1F (stereo not given in full)",
    "tested-on": "UACC-257 melanoma",
    "log10 TGI": 1.61
  },
  {
    "molecule": "Cc1cc(C)c2c(n1)S(=O)(=O)N(CCCN1CCN(c3cccc(Cl)c3)CC1)/C(=C(\\O)c1ccccc1)C2=O",
    "tested-on": "UACC-257 melanoma",
    "log10 TGI": 1.74
  }
]

Numbers sourced from PubChem BioAssay (NCI).
